Can you tell me Age in days at 50% mortality for the items I'm about to list?
Test system: C. elegans
Assay: Life span assay on Automated Lifespan Machine (SND302, SND303)
Assay type: in vivo
Conditions: SND302, SND303 25 μM; Uro A, Resveratrol 50 μM

compound	measured_quantity	obs_value
CC(C)NC(=O)Oc1ccc2c(c1)oc(=O)c1cc(OC(=O)NC(C)C)ccc12	Age in days at 50% mortality	29.0 days

Could you report Age in days at 50% mortality for every entry in the following list?
1. Oc1ccc(C=Cc2cc(O)cc(O)c2)cc1 [Resveratrol, reference compound]
2. CCNC(=O)Oc1ccc2c(c1)oc(=O)c1cc(OC(=O)NCC)ccc12
3. O=c1oc2cc(O)ccc2c2ccc(O)cc12 [Urolithin A, reference compound]

1: 28.2 days; 2: 28.2 days; 3: 27.8 days
